- Test system: MALME-3M melanoma
- test.method.notes: NCI tumour cell line growth inhibition, 48 h; in the data active = GI50 below about 0.43 µM; inactive = the rest
Your answer must be one of the following: active, inactive

The examples below pair each entry with its known result.
O=C(CC(Cl)=C(Cl)Cl)c1cccc(Cl)c1Cl ... inactive
O=[N+]([O-])c1cccc(C2CC(c3ccccc3)=Nc3ccccc3S2)c1 (stereo not drawn) ... inactive
c1ccc2c3c([nH]c2c1)C(c1ccc(C2NCCc4c2[nH]c2ccccc42)cc1)NCC3 (stereo not drawn) ... inactive
COc1cccc(/C=C2\COc3ccc(-c4ccccc4)cc3C2=O)c1 ... inactive
c1cc2c(cn1)Nc1ccncc1S2 ... inactive
CO[C@H]1C[C@@H]2CC[C@@H](C)[C@@](O)(O2)C(=O)C(=O)N2CCCC[C@H]2C(=O)O[C@H]([C@H](C)C[C@@H]2CC[C@@H](OCCO)[C@H](OC)C2)CC(=O)[C@H](C)C=C(C)[C@@H](O)[C@@H](OC)C(=O)[C@H](C)C[C@H](C)/C=C/C=C/C=C1C ... active

Incoming: Would you mind telling me which call this test gave O=C1/C=C/[C@@H](O)[C@@H]2C[C@@H](O)C[C@H]2/C=C/CCC[C@H](C(F)(F)F)O1 ?
Outgoing: active

Incoming: Would you mind telling me which call this test gave COc1ccc2c(OCc3nnc4ccc(-c5ccccc5)nn34)ccnc2c1 ?
Outgoing: inactive

====

- Tested on: MOLT-4 leukemia
- test.method.notes: NCI tumour cell line growth inhibition, 48 h; in the data active = GI50 below about 0.43 µM; inactive = the rest
Your answer must be one of the following: 1 = active, 0 = inactive

COc1cc(-c2nn(-c3cccc(NC(=O)c4ccc(Cl)c(C(F)(F)F)c4)c3)cc2-c2ccncc2)ccc1Cl ... 0
COc1cc2nc3cc([N+](=O)[O-])ccc3c(NCCNCC(C)(C)O)c2cc1OC ... 1
CC[C@H](C)[C@H](NC(=O)CN(C)C)C(=O)N(C)[C@H](C[C@@H](OC(C)=O)c1nc(C(=O)NC23CC(C(=O)OC)(C2)C3)cs1)C(C)C ... 1
O=C(Nc1nc2ccccc2s1)Nc1ccc([N+](=O)[O-])cc1Cl ... 0
CN(CC(=O)N(Cc1ccc(C2CCCCC2)cc1)c1ccc(C(=O)O)cc1)S(=O)(=O)c1c(F)c(F)c(F)c(F)c1F ... 0
COc1nnc2ccc(N3CCC(c4ccc(OCCN5CCN(C)C(=O)[C@H]5C)cc4)CC3)nn12 ... 1

Incoming: Would you mind telling me which call this test gave C=CC(=O)N1CC2(CC(n3nc(-c4ccc5c(cnn5C)c4)c(-c4c(Cl)c(C)cc5[nH]ncc45)c3C)C2)C1 ?
Outgoing: 0

Incoming: Would you mind telling me which call this test gave N=c1c2c(=N)n3c(nc2nc2n1-c1ccccc1Sc1ccccc1-2)sc1cc(Cl)ccc13 ?
Outgoing: 0

Incoming: Would you mind telling me which call this test gave CCC(=O)c1c(C(F)(F)F)n([O-])c2cc(F)c(F)cc2[n+]1=O ?
Outgoing: 1

====

- Tested on: MDA-MB-231 breast
- test.method.notes: NCI tumour cell line growth inhibition, 48 h
Each record here notes measured TGI.
Write down the numeric answer in µM and omit the unit.

Recorded TGI, per entry:
CC1CC(=O)N(N(C)C)C(C#N)(C#N)C1(C#N)C#N (stereo unspecified) ... 28.9
COc1ccc(N=N/C(C(=O)C(F)(F)F)=C(\O)c2ccc(Cl)cc2)cc1 ... 66.9

Lab note: next compound to report on.
Kindly note: MDA-MB-231 breast, COc1ccc(/C(C#N)=C2C=C/C(=N/O)c3ccccc3\2)cc1 , TGI value reported: 0.796

Recorded values, source PubChem BioAssay (NCI).
